target: SPOP^MATH (Homo sapiens, UniProt O43791)
Sequence (O43791 28-166): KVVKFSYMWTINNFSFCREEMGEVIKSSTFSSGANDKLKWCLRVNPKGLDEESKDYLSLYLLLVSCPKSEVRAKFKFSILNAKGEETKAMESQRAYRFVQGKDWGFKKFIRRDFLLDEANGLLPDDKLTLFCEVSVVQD
attribute-measured: IC50 (µM)

1: Cc1nnc(SCC2=C(C(=O)O)N3C(=O)C(NC(=O)c4ccc(COc5ccccc5Cl)o4)C3SC2)s1 (centres unmarked)
2: CC(=O)OCC1=C(C(=O)O)N2C(=O)C(NC(=O)c3ccc(COc4ccc(Br)cc4Cl)o3)C2SC1 (centres unmarked)
Q. Please tell me which of the two, 1 or 2 , has the higher reported IC50 value. // caller expects the label of the chosen entry
A. 2
(2: 8.7 µM, 1: 4.3 µM)

====

Target: UniProt:Q86XS8
Sequence (Q86XS8 28-304): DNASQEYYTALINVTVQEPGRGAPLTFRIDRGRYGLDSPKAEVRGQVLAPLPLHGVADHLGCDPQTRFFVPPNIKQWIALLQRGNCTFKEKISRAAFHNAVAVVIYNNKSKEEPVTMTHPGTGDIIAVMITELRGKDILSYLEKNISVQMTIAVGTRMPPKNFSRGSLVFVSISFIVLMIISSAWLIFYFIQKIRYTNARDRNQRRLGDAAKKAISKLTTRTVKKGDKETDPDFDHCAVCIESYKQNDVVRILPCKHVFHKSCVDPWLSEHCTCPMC
attribute-measured: Kd (µM)
Express your answer in µM, writing the number without its unit.

Assay UniProt:Q86XS8, sample CS(=O)(=O)c1nnc(CN2C3C=C(c4ccccc4)CC2CC3)s1 (stereo not shown) , Kd read: 9.36
